Quick reference for shrunken log2 fold change among some sequences
- Test system: Escherichia coli TOP10
- TEST_METHOD_NOTES: shrunken log2 fold change of peptide-encoding DNA abundance (4.5 h post-induction vs induction); higher = less antimicrobial activity (less host growth inhibition)
- MEASUREMENT_SETUP: time post-induction: 4.5 h; library: site-saturation at positions 5, 18, 19, 20
ASSAY_METRIC: shrunken log2 fold change

>>> reading("RRIRHRPPRLPRPRPRPDADPRP")
0.0435
>>> reading("RRIRDRPPRLPRPRPRPHYYPRP")
-0.236
>>> reading("RRIRVRPPRLPRPRPRPVQHPRP")
-0.0336
>>> reading("RRIRTRPPRLPRPRPRPIMRPRP")
0.25
>>> reading("RRIRTRPPRLPRPRPRPWHGPRP")
-0.111
>>> reading("RRIRQRPPRLPRPRPRPHGNPRP")
0.0941
>>> reading("RRIRQRPPRLPRPRPRPYFFPRP")
-0.706
>>> reading("RRIRLRPPRLPRPRPRPPMCPRP")
0.202
>>> reading("RRIRRRPPRLPRPRPRPAGFPRP")
0.439
>>> reading("RRIRPRPPRLPRPRPRPQYNPRP")
-0.742
>>> reading("RRIRNRPPRLPRPRPRPYTNPRP")
-0.424
>>> reading("RRIRTRPPRLPRPRPRPMSWPRP")
0.0201
>>> reading("RRIRQRPPRLPRPRPRPGNLPRP")
0.0588
>>> reading("RRIRIRPPRLPRPRPRPTVVPRP")
-0.0277
>>> reading("RRIRFRPPRLPRPRPRPGRAPRP")
0.712

----------
- Tested on: Escherichia coli TOP10
- TEST_METHOD_NOTES: shrunken log2 fold change of peptide-encoding DNA abundance (4.5 h post-induction vs induction); higher = less antimicrobial activity (less host growth inhibition)
- MEASUREMENT_SETUP: time post-induction: 4.5 h; library: site-saturation at positions 5, 18, 19, 20
# label = MET if shrunken log2 fold change >= 0.004 else NOT MET

>>> class_assignment("RRIRMRPPRLPRPRPRPMYKPRP")
"NOT MET"
>>> class_assignment("RRIRMRPPRLPRPRPRPGMQPRP")
"NOT MET"
>>> class_assignment("RRIRWRPPRLPRPRPRPSNFPRP")
"NOT MET"
>>> class_assignment("RRIRNRPPRLPRPRPRPPKWPRP")
"MET"
>>> class_assignment("RRIRERPPRLPRPRPRPTNEPRP")
"NOT MET"
>>> class_assignment("RRIRKRPPRLPRPRPRPCPQPRP")
"MET"
>>> class_assignment("RRIRPRPPRLPRPRPRPNEGPRP")
"MET"

----------
- Tested on: Escherichia coli TOP10
- TEST_METHOD_NOTES: shrunken log2 fold change of peptide-encoding DNA abundance (4.5 h post-induction vs induction); higher = less antimicrobial activity (less host growth inhibition)
- MEASUREMENT_SETUP: time post-induction: 4.5 h; library: site-saturation at positions 5, 18, 19, 20
Classes (shrunken log2 fold change): category 1 (below -0.2), category 2 (-0.2 to below 0.2), category 3 (0.2 or more)

>>> class_assignment("RRIRKRPPRLPRPRPRPMPHPRP")
"category 3"
>>> class_assignment("RRIRLRPPRLPRPRPRPEATPRP")
"category 3"
>>> class_assignment("RRIRWRPPRLPRPRPRPYHEPRP")
"category 2"
>>> class_assignment("RRIRGRPPRLPRPRPRPCAPPRP")
"category 3"
>>> class_assignment("RRIRNRPPRLPRPRPRPMPLPRP")
"category 2"
>>> class_assignment("RRIRSRPPRLPRPRPRPQNLPRP")
"category 1"
>>> class_assignment("RRIRFRPPRLPRPRPRPEPIPRP")
"category 3"
>>> class_assignment("RRIRNRPPRLPRPRPRPQQFPRP")
"category 2"
>>> class_assignment("RRIRTRPPRLPRPRPRPRYPPRP")
"category 1"
>>> class_assignment("RRIRHRPPRLPRPRPRPLEAPRP")
"category 2"
>>> class_assignment("RRIRERPPRLPRPRPRPHNIPRP")
"category 1"
>>> class_assignment("RRIRRRPPRLPRPRPRPMASPRP")
"category 2"
>>> class_assignment("RRIRYRPPRLPRPRPRPHGNPRP")
"category 1"

----------
- System: Escherichia coli TOP10
- TEST_METHOD_NOTES: shrunken log2 fold change of peptide-encoding DNA abundance (4.5 h post-induction vs induction); higher = less antimicrobial activity (less host growth inhibition)
- MEASUREMENT_SETUP: time post-induction: 4.5 h; library: site-saturation at positions 5, 18, 19, 20
Please note: class 1 applies when shrunken log2 fold change is 0.02 or greater, and class 0 applies otherwise.

>>> class_assignment("RRIRSRPPRLPRPRPRPKEFPRP")
"class 0"
>>> class_assignment("RRIRARPPRLPRPRPRPANSPRP")
"class 1"
>>> class_assignment("RRIRDRPPRLPRPRPRPNTEPRP")
"class 0"
>>> class_assignment("RRIRIRPPRLPRPRPRPKQWPRP")
"class 0"
>>> class_assignment("RRIRDRPPRLPRPRPRPHGWPRP")
"class 1"
>>> class_assignment("RRIRWRPPRLPRPRPRPDETPRP")
"class 0"
>>> class_assignment("RRIRERPPRLPRPRPRPHEDPRP")
"class 1"
>>> class_assignment("RRIRYRPPRLPRPRPRPMHRPRP")
"class 0"

----------
Recorded shrunken log2 fold change values for a group of sequences are listed next.
- System: Escherichia coli TOP10
- TEST_METHOD_NOTES: shrunken log2 fold change of peptide-encoding DNA abundance (4.5 h post-induction vs induction); higher = less antimicrobial activity (less host growth inhibition)
- MEASUREMENT_SETUP: time post-induction: 4.5 h; library: site-saturation at positions 5, 18, 19, 20
ASSAY_METRIC: shrunken log2 fold change

>>> reading("RRIRGRPPRLPRPRPRPRWTPRP")
0.43
>>> reading("RRIRQRPPRLPRPRPRPKSLPRP")
-0.0933
>>> reading("RRIRARPPRLPRPRPRPDFFPRP")
0.307
>>> reading("RRIRERPPRLPRPRPRPFEKPRP")
0.00177
>>> reading("RRIRWRPPRLPRPRPRPFFKPRP")
-0.0879
>>> reading("RRIRCRPPRLPRPRPRPVDYPRP")
-0.258
>>> reading("RRIRKRPPRLPRPRPRPSEIPRP")
0.157
>>> reading("RRIRVRPPRLPRPRPRPGCSPRP")
0.186

----------
- System: Escherichia coli TOP10;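 note: peptides expressed intracellularly from a pBAD plasmid library in pooled LB shake-flask culture, induced with 0.3% L-arabinose, DNA abundance read by NGS, three biological replicates, DESeq2 with apeglm shrinkage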
- TEST_METHOD_NOTES: shrunken log2 fold change of peptide-encoding DNA abundance (4.5 h post-induction vs induction); higher = less antimicrobial activity (less host growth inhibition)
- MEASUREMENT_SETUP: time post-induction: 4.5 h; library: site-saturation at positions 5, 18, 19, 20
// label = 1 (yes) if shrunken log2 fold change is not less than 0.01, otherwise 0 (no)

>>> class_assignment("RRIRCRPPRLPRPRPRPNFWPRP")
"0 (no)"
>>> class_assignment("RRIRWRPPRLPRPRPRPVVMPRP")
"0 (no)"
>>> class_assignment("RRIRIRPPRLPRPRPRPEGAPRP")
"1 (yes)"
>>> class_assignment("RRIRVRPPRLPRPRPRPSGYPRP")
"0 (no)"
>>> class_assignment("RRIRARPPRLPRPRPRPKKMPRP")
"0 (no)"
>>> class_assignment("RRIRIRPPRLPRPRPRPHFAPRP")
"0 (no)"
>>> class_assignment("RRIRLRPPRLPRPRPRPLRKPRP")
"1 (yes)"
>>> class_assignment("RRIRGRPPRLPRPRPRPIYWPRP")
"1 (yes)"
>>> class_assignment("RRIRNRPPRLPRPRPRPSQRPRP")
"0 (no)"
>>> class_assignment("RRIRIRPPRLPRPRPRPKWNPRP")
"0 (no)"
>>> class_assignment("RRIRHRPPRLPRPRPRPQPRPRP")
"1 (yes)"
>>> class_assignment("RRIRSRPPRLPRPRPRPLAPPRP")
"1 (yes)"
>>> class_assignment("RRIRQRPPRLPRPRPRPNVSPRP")
"0 (no)"
>>> class_assignment("RRIRMRPPRLPRPRPRPRQIPRP")
"1 (yes)"
>>> class_assignment("RRIRKRPPRLPRPRPRPLVSPRP")
"1 (yes)"
>>> class_assignment("RRIRLRPPRLPRPRPRPKRHPRP")
"1 (yes)"
>>> class_assignment("RRIRKRPPRLPRPRPRPWWLPRP")
"1 (yes)"
>>> class_assignment("RRIRPRPPRLPRPRPRPWGAPRP")
"1 (yes)"
>>> class_assignment("RRIRARPPRLPRPRPRPVLPPRP")
"1 (yes)"
>>> class_assignment("RRIRARPPRLPRPRPRPPFTPRP")
"1 (yes)"
>>> class_assignment("RRIRIRPPRLPRPRPRPNIGPRP")
"0 (no)"
>>> class_assignment("RRIRNRPPRLPRPRPRPDTCPRP")
"0 (no)"
>>> class_assignment("RRIRYRPPRLPRPRPRPKCEPRP")
"0 (no)"
>>> class_assignment("RRIRYRPPRLPRPRPRPIRIPRP")
"0 (no)"
>>> class_assignment("RRIRRRPPRLPRPRPRPRMQPRP")
"1 (yes)"
>>> class_assignment("RRIRCRPPRLPRPRPRPCGMPRP")
"1 (yes)"
>>> class_assignment("RRIRGRPPRLPRPRPRPWFDPRP")
"0 (no)"
>>> class_assignment("RRIRERPPRLPRPRPRPIIVPRP")
"0 (no)"
>>> class_assignment("RRIRTRPPRLPRPRPRPWAGPRP")
"0 (no)"
>>> class_assignment("RRIRDRPPRLPRPRPRPIWCPRP")
"0 (no)"
>>> class_assignment("RRIRFRPPRLPRPRPRPEWPPRP")
"1 (yes)"
>>> class_assignment("RRIRKRPPRLPRPRPRPWPCPRP")
"1 (yes)"
